study_target: VEGFR2 (KDR) (Homo sapiens (Human), UniProt P35968)
Sequence (P35968 786-1356): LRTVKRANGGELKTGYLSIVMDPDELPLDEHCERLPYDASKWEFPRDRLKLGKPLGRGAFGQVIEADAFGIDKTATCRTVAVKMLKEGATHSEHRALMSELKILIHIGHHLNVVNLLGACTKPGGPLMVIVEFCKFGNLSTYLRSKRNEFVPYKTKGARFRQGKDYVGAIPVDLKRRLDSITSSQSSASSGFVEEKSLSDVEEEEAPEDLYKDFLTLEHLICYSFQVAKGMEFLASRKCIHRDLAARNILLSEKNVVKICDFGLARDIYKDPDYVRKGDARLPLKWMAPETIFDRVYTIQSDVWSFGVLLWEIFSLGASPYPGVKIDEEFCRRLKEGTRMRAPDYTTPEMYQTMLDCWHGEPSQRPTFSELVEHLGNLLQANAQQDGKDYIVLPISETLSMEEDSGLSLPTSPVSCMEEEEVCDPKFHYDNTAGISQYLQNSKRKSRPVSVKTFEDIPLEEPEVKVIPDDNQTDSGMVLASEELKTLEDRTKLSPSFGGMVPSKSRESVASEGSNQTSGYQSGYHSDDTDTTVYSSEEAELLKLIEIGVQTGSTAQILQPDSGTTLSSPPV
test_details: VEGFR2 Kinase Assay
Format: biochemical
assay_context: purified cytoplasmic domain KDR protein, 2.7 μM ATP; read-out: VEGFR2 Enzyme Assay (IC50 nM)
# maps each entry to its IC50
Report as a plain number; the unit nM is understood.

compound: Cc1ccoc1C(=O)Nc1cccc(C#Cc2cc(C(=O)N=S(C)(C)=O)cnc2N)c1
assay_value: 6

Documented IC50 of COC(=O)CCCCS(C)(=O)=NC(=O)c1cnc(N)c(C#Cc2cccc(NC(=O)c3ccc(OC)c(OC)c3)c2)c1 (stereo not shown) : 15

The value of IC50 measured for the compound Cc1cccc(NC(=O)Nc2cccc(C#Cc3cncc(C(=O)N=S(C)(C)=O)c3)c2)c1 turned out to be 8

Documented IC50 of COC(=O)CCCCS(C)(=O)=NC(=O)c1cnc(N)c(C#Cc2cccc(NC(=O)Nc3cc(C)ccc3F)c2)c1 (stereo not shown) : 5
